Hey, just so you know, these numbers are from patent US5866617A.

- procedureText: physchem
- statedConditions: water
endpoint: solubility

solubility measured on "O=S(=O)([O-])CCSSCCS(=O)(=O)[O-].[Na+].[Na+]" = 10.5 to 102 mg/mL
